Provenance of the data: PubChem BioAssay (NCI)

system: SK-OV-3 ovarian; test: NCI-60 one-dose screen, 48 h; settings: 10 µM unless noted
This is part of a sample that, as a whole, favours compounds with a hit. Of some 83,000 tested, about 20% had one in any assay. Active and inactive are the calls of the source. The calls were made as follows: active = growth percent below 10; inactive = the rest.
Response enum: T for active, F for inactive

Solved cases below.
## Input What classification did "CC(=O)C1=C(O)C=C2Oc3c(C(=O)/C=C/c4c(Cl)cccc4Cl)c(O)c(C)c(O)c3[C@]2(C)C1=O" end up with in this test?
## Output T

## Input Kindly provide the recorded test outcome for the following compound: "COc1ccc(S(=O)(=O)NCCNc2nccc(-c3c(-c4cccc(N)c4)nc4sccn34)n2)cc1"
## Output F

## Input How did this test come out for "O=C1Nc2c(ccc(Cl)c2Cl)/C1=C/c1cc(Br)c(O)c(Br)c1" ?
## Output F

## Input What is the recorded call for this compound in the test? "O=C1c2ccccc2-c2nccc3cc(Cl)nc1c23"
## Output F

## Input Answer briefly: the call reported for "c1ccc(CSc2ncnc3nc[nH]c23)nc1" in this assay.
## Output F

---
## Input Name the outcome recorded for "O=C(CN1CCN(c2cc3c(cc2F)c(=O)c(C(=O)N/N=C/c2ccccc2)cn3C2CC2)CC1)N/N=C\c1ccccc1" in the assay.
## Output F

###

system: SF-539 CNS; assay: NCI-60 one-dose screen, 48 h; conditions: 10 µM unless noted
Compounds without any hit were thinned out: in the full panel of roughly 83,000, 20% have a hit. Activity calls are given as the source filed them. The calls were made as follows: active = growth percent below 10; inactive = the rest.
Form entry, call: pick from T for active, F for inactive

Below are worked cases with known answers.
## Input Please state the recorded outcome for this compound: "C=CCSc1nnc(-c2ccc(C(C)(C)C)cc2)n1-c1cccc(C(F)(F)F)c1"
## Output F

## Input Which result was noted for this compound in the test: "O=C(Nc1ccc(CN2CCOCC2)cc1)c1[nH]ncc1Nc1ncnc2sccc12"
## Output T

---
## Input Field: outcome | Entry: "CCCCCCCCCCCCCCCCNCCC[C@@H](C)[C@H]1CC[C@H]2[C@@H]3[C@H](OCCCN)C[C@@H]4C[C@H](OCCCN)CC[C@]4(C)[C@H]3C[C@H](OCCCN)[C@]12C"
## Output T

## Input Dear colleague, could you share the recorded outcome for "NS(=O)(=O)c1ccc(-n2ncc3c(=O)[nH]c(CN4CCN(c5cc6c(cc5F)c(=O)c(C(=O)O)cn6C5CC5)CC4)nc32)cc1" when you have a moment?
## Output F

## Input Can you look up the reported call for "CCN(CC)c1ccc(CNc2cc(C)nc3ccc(OC)cc23)cc1" for me?
## Output F

## Input What is the recorded call for this compound in the test? NC(CC(=O)O)C(=O)OCc1ccccc1 (centres undefined)
## Output F

## Input How did this test come out for "CCN(CC)Cc1cc(Nc2c3ccccc3nc3cc(Cl)ccc23)ccc1O" ?
## Output T

## Input // return assay outcome for "CC/C(=C(\c1ccccc1)c1ccc(OCCNC)cc1)c1ccccc1"
## Output T

## Input Short answer needed: outcome of this test for C=C1CC[C@@H]2[C@](C)(COC(C)=O)[C@H](OC(C)=O)CC[C@@]2(C)[C@@H]1CC(NCc1ccc(F)cc1)C1=CCOC1=O (some centres undefined) ?
## Output F

###

tested on: OVCAR-3 ovarian; experiment: NCI-60 one-dose screen, 48 h (100 = growth as untreated, 0 = no growth, -100 = all killed); settings: 10 µM unless noted
About 83,000 compounds went through this panel and 20% of them were active in at least one assay; those are over-represented in the sample as a whole.
value.kind: growth (%)
Only the number, expressed in %, is required.

# example entries with known answers
## Input I would be grateful if you could share the reported growth for "CC(=O)C1=C(O)C=C2Oc3c(C(=O)/C=C/c4c(Cl)cccc4Cl)c(O)c(C)c(O)c3[C@]2(C)C1=O" .
## Output -30.6

## Input Entry under review: "CCC(=O)OCc1cccc(OC)c1" . Reported growth?
## Output 107

## Input Please report the recorded growth for Nc1nc2c(c3ncccc13)C(c1cccc(Br)c1)Cc1ncccc1-2 (stereo not drawn) .
## Output -8.61

---
## Input Quick one: growth of "CC/C(=C(\c1ccc(O)cc1)c1ccc(OCCN(C)CCN(C)C(=O)CCCCC(=O)c2c(C)[nH]c(/C=C3\N=C(c4ccc[nH]4)C=C3OC)c2C)cc1)c1ccccc1" ?
## Output 89.4

## Input Can you look up the measured growth of "COc1ccc(C(=O)COc2ccc(/C=C3\Oc4ccc(Cl)cc4C3=O)cc2)cc1" for me?
## Output 113

## Input For "O=[N+]([O-])c1cccc(-c2nc3sccn3c2-c2ccnc(NCCCNS(=O)(=O)c3ccc(F)cc3)n2)c1" , what is its reported growth?
## Output 4.12

## Input Query (compound): "CCCCCCCCCC(=O)Oc1ccc(/C(=C(/C)Cc2cccc(OC)c2)c2ccc(OCCN(C)C)cc2)cc1" ; field requested: growth
## Output 109
